Tested on: PC-3
Assay: NCI tumour cell line growth inhibition, 48 h
The source made the active and inactive calls. Cut-off read from the data, not from the text of the source: active = GI50 up to about 1.1 µM and inactive = higher.
GI50: recorded values

Take a look at these entries with their results.
I am curious: what GI50 value has been reported for Fc1ccc(C(OCCN2CCC3CCC(C2)N3CCCc2ccccc2)c2ccc(F)cc2)cc1 (stereo not given) ?
2.98 µM (inactive)

// query GI50 value for entry O=C1CC(c2cccc(Cl)c2)Oc2ccccc21 (stereo not given)
15.7 µM (inactive)

Sample OC12C3C4CC5C(C4[C@@H]1Br)C2[C@@](O)(c1c(F)c(F)c(F)c(F)c1F)C53 (stereo not given in full) — what was its GI50?
23.3 µM (inactive)

# get_value(readout='GI50', item= c1csc(-c2ccc(-c3cccc4nsnc34)s2)c1 )
> 100 µM (inactive)

Request the reported GI50 associated with S=C(NN=C1NCCCCN1)Nc1ccccc1
45.7 µM (inactive)

Further cases:
Given C/C(=C/CC[C@]1(CO)CC[C@]2(C)[C@H](CC[C@@H]3[C@@]4(C)CC[C@H](OC5OC(CO)C(O)C(O)C5OC5OC(CO)C(O)C(O)C5O)C(C)(C)[C@@H]4CC[C@]32C)[C@H]1O)CO (stereo not given in full) , state its recorded GI50.
> 100 µM (inactive)

Name the reported GI50 value associated with the compound Cc1c(C(C)C)cc(OCCO)cc1C(C)C
30.8 µM (inactive)

Recorded GI50 for Cc1coc2c1C[C@@]1(C)[C@H](CCC[C@@H]1C)[C@H]2O , please?
19.1 µM (inactive)

Dear colleague, I am looking for the recorded GI50 of the following compound: COC(=O)CCc1ccc2c(c1)CC1(Cc3ccccc3C1)C2
> 100 µM (inactive)

Entry O=[N+]([O-])c1cccc(/N=C2\c3ccccc3CN2c2cccc([N+](=O)[O-])c2)c1 : reported GI50 = ?
72.8 µM (inactive)
